- Target Entity: UniProt P97612
- Sequence (P97612 1-579): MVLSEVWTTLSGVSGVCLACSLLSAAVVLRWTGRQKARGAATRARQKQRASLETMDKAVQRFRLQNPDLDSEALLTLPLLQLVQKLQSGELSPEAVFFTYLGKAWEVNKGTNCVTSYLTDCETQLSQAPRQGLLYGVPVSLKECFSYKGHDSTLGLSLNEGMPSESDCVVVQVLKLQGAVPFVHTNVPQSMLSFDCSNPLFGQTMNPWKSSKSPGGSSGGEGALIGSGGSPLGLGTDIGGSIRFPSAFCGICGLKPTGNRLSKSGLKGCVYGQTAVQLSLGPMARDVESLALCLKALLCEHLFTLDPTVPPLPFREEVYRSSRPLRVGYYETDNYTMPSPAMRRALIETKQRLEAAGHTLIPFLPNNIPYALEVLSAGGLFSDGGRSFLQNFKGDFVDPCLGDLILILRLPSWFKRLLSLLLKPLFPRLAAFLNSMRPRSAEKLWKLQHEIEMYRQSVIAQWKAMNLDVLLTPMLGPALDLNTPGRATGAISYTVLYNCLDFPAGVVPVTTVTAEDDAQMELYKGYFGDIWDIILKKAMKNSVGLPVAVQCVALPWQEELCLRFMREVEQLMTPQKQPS
# Lookup of reported IC50 keyed by entry

Smiles Str | IC50, nM
NC(=O)c1cccc(-c2ccc(OC(=O)NCCCN3CCN(c4cccc(Cl)c4Cl)CC3)cc2)c1 | 1.5
NC(=O)c1cccc(-c2ccc(OC(=O)NCCCCN3CCN(c4cccc(Cl)c4Cl)CC3)cc2)c1 | 0.72
NC(=O)c1cccc(-c2cccc(OC(=O)NCCCCN3CCN(c4cccc(Cl)c4Cl)CC3)c2)c1 | 0.3
NC(=O)c1cccc(-c2cccc(OC(=O)NCCCN3CCN(c4ccccc4)CC3)c2)c1 | 0.32
